- measured_on: Cannabinoid receptor 2 (Homo sapiens)
- Sequence (P34972 whole entry): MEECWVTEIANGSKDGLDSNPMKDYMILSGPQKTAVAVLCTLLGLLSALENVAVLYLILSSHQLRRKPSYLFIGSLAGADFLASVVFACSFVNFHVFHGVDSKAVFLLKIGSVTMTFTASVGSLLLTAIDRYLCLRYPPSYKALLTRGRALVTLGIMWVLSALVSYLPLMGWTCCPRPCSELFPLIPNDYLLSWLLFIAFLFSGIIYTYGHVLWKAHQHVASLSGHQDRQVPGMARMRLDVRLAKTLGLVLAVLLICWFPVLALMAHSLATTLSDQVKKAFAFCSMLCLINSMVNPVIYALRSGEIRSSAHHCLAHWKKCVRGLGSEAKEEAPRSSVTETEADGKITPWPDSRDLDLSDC
- procedure_details: Displacement of [3H]-CP55940 from human recombinant CB2 receptor expressed in CHO-K1 cell membrane at 1 uM measured after 3 hrs by scintillation spectrometry
- Format: cell membranes
- test_conditions: filed as agonist
Measured inhibition, listed per entry for reference.
endpoint: inhibition

smiles_repr: CCCCCCC(C)(C)c1cc(OC)c2cc(Cc3ccccc3OC)c(=O)oc2c1
assay_value: > 50%

smiles_repr: CCCCCCC(C)(C)c1cc(OC)c2cc(Cc3ccccc3)c(=O)oc2c1
assay_value: > 50%

smiles_repr: CCCCC1(c2cc(O)c3cc(CCC)c(=O)oc3c2)CCCCC1
assay_value: > 50%

smiles_repr: CCCCC1(c2cc(O)c3cc(Cc4cccnc4)c(=O)oc3c2)CCCC1
assay_value: > 50%

smiles_repr: CCCCC1(c2cc(O)c3cc(C)c(=O)oc3c2)CCCC1
assay_value: 49%

smiles_repr: CCCCc1cc2c(O)cc(C3(CCCC)CCCC3)cc2oc1=O
assay_value: > 50%

smiles_repr: CCCCCc1cc(OC)c2cc(Cc3ccccn3)c(=O)oc2c1
assay_value: > 50%

smiles_repr: CCCCC1(c2cc(O)c3cc(-c4ccccc4C)c(=O)oc3c2)CCCC1
assay_value: 43%

smiles_repr: CCCCCc1cc(OC)c2cc(Cc3cccnc3)c(=O)oc2c1
assay_value: > 50%

smiles_repr: CCCCC1(c2cc(O)c3cc(CC)c(=O)oc3c2)CCCCC1
assay_value: > 50%

smiles_repr: CCCCC1(c2cc(O)c3cc(Cc4ccccn4)c(=O)oc3c2)CCCC1
assay_value: 44%

smiles_repr: CCCCC(C)(C)c1cc(O)c2cc(Cc3ccccc3C)c(=O)oc2c1
assay_value: 41%

smiles_repr: CCCCCCC(C)(C)c1cc(O)c2cc(Cc3ccccc3C(F)(F)F)c(=O)oc2c1
assay_value: 42%

Recorded values, source ChEMBL document CHEMBL4842314.
